- target-under-test: JAK 2 (Homo sapiens, UniProt O60674)
- Sequence (O60674 whole entry): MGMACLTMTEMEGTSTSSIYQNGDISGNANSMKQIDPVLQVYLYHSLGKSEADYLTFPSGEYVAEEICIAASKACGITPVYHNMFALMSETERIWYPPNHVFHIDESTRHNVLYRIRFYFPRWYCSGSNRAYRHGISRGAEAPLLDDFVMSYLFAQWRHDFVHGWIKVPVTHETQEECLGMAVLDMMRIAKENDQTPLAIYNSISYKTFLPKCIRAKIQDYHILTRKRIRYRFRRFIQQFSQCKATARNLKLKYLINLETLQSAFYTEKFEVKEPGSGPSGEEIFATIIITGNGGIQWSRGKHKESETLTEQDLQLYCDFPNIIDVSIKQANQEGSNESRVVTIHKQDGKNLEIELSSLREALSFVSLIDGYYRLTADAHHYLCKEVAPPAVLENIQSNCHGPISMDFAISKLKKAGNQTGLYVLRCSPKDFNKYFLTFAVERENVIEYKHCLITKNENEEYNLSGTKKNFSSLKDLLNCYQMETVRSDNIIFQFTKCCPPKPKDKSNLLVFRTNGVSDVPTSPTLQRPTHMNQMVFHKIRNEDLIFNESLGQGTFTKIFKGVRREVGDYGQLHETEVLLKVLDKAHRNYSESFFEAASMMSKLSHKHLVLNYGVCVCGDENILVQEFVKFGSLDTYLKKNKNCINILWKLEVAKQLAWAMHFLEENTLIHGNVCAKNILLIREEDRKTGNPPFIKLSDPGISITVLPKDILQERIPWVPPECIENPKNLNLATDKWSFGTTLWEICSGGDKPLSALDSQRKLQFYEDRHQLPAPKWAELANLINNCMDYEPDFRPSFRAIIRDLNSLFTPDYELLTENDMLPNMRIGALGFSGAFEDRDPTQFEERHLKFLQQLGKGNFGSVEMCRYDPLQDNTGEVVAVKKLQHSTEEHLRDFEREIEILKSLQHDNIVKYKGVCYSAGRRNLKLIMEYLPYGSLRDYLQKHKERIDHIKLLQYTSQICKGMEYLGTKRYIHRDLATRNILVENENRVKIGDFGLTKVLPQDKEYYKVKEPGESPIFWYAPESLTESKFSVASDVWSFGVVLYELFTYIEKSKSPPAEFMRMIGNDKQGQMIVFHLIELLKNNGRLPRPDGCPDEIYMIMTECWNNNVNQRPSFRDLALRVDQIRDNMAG
- protocol-text: Biochemical potency on JAK2, TR-FRET LANCE Ultra kinase assay (examples 1-99)
- measurement-setup: ATP at Km (0.7 μM), read-out: JAK2 inhibitory activity (pIC50 class) (converted)
Reported IC50 values are given for each entry in this list.

Some solved entries appear below for comparison.
COc1ccc(S(=O)(=O)NCCCN2CCN(C)CC2)cc1-n1nc(C)c2cnc(-c3cnn4cccnc34)cc21 :: 5.01 to 50.1 nM
COc1ccc(Cl)cc1-n1nc(C(=O)N[C@H]2C[C@H](N(C)C)C2)c2cnc(-c3cnn4cccnc34)cc21 :: 5.01 to 50.1 nM
COc1ccc(C(F)F)cc1-n1nc(C)c2cnc(Nc3ncc[nH]c3=O)cc21 :: ≤ 5.01 nM
COc1ccc(Cl)cc1-n1nc(C(=O)N[C@H]2C[C@H](N)C2)c2cnc(-c3cnn4cccnc34)cc21 :: 5.01 to 50.1 nM
CC(=O)N1CCC(Sc2ccc(OC(F)F)c(-n3nc(C)c4cnc(-c5cnn6cccnc56)cc43)c2)CC1 :: 5.01 to 50.1 nM

Query: Give recorded IC50. CNCc1nn(-c2cc(S(C)(=O)=O)ccc2OC)c2cc(-c3cnn4cccnc34)ncc12
Result: 5.01 to 50.1 nM

Query: Give recorded IC50. COc1ccc(Cl)cc1-n1ncc2c(N)nc(-c3cnn4cccnc34)cc21
Result: 5.01 to 50.1 nM

Query: Give recorded IC50. COc1ccc(OC)c(-n2nc(C)c3cnc(-c4cnn5cccnc45)cc32)c1
Result: ≤ 5.01 nM

Query: Give recorded IC50. Cc1nn(-c2cc(C#N)ccc2OC(F)F)c2cc(-c3cnn4cccnc34)ncc12
Result: ≤ 5.01 nM

Query: Give recorded IC50. COc1ccc(F)cc1-n1nc(NCCCN(C)C)c2cnc(Nc3ncc[nH]c3=O)cc21
Result: ≤ 5.01 nM

Query: Give recorded IC50. COc1ccc(Cl)cc1-n1ncc2c(NCCNC(C)=O)nc(-c3cnn4cccnc34)cc21
Result: > 50.1 nM
